test system: UO-31 renal; assay: NCI tumour cell line growth inhibition, 48 h
I'd appreciate it if you could supply TGI values for the items below.

Worked cases, TGI given:
>>> observed("Cc1c(C(=O)CC(=O)C(=O)Nc2ccc(Cl)cc2)[n+](=O)c2ccccc2n1[O-]")
"> 100 µM"
>>> observed("COc1cccc(N2C(=O)/C(=C\\c3ccccc3)SC2c2cc(OC)c(OC)c(OC)c2)c1 (configuration not stated)")
"> 100 µM"
>>> observed("Cc1ccc2nc(-c3ccccc3)c(N=O)n2c1")
"> 100 µM"

Can you give me TGI for all of these, one by one?
1. CN(C)C=[N+]=[N-]
2. Cc1ccc(N(C(=O)Nc2ccc(F)c(Cl)c2)C2=NCC(C)S2)cc1 (configuration not stated)
3. CC(C)(C)OC(=O)NC(CCC(=O)OCc1ccccc1)C(=O)NCCCO (configuration not stated)
4. COC(=O)CCC1CCC(c2cc(F)ccc2F)(S(=O)(=O)c2ccc(Cl)cc2)CC1 (configuration not stated)
5. Cc1sc2nc(-c3ccc([N+](=O)[O-])cc3)c(/C=N/N=C(N)N)n2c1C
6. CC(=O)C(CN(Cc1ccccc1)Cc1ccccc1)C(c1ccccc1)c1c(O)c2ccccc2oc1=O (configuration not stated)
7. CC(C)COCC(CN(Cc1ccccc1)c1ccccc1)N1CCCC1 (configuration not stated)

> 100 µM
> 100 µM
> 100 µM
> 100 µM
2.98 µM
> 100 µM
13.1 µM

Can you give me TGI for all of these, one by one?
1. COC(=O)C1=C(C(=O)OC)SC(=C(Cl)C(=S)Nc2ccccc2O)S1
2. CSc1sc(=S)sc1C(=O)N(C)c1ccccc1
3. O=C(O)NCC1CCCCC1 (tested in a mixture with another compound)
4. Cc1cc(=O)[nH]c2cc3c(c4c(n3Cc3ccc(Cl)cc3Cl)CC(C)(C)CC4=O)c(O)c12
5. COCn1cnc2c(=O)n(-c3ccc(OC)cc3)c(=S)n(-c3ccc(OC)cc3)c21

1: 39.2 µM; 2: > 100 µM; 3: > 100 µM; 4: > 100 µM; 5: > 100 µM

Can you give me TGI for all of these, one by one?
1. O=C1C=CC[C@H](/C=C/c2ccccc2)O1
2. CN(N)/N=N/c1nc[nH]c1[N+](=O)[O-]
3. C/C=C1/CCC2c3[nH]c4ccccc4c3CCN2C1 (configuration not stated)
4. Cc1[nH]c(=O)n2c(C)nnc2c1C(=O)Nc1cc(Cl)cc(Cl)c1
5. OC(CNCC1CCCO1)Cn1c2ccc(Cl)cc2c2cc(Cl)ccc21 (configuration not stated)

8.99 µM
> 100 µM
> 100 µM
68.2 µM
3.15 µM

Can you give me TGI for all of these, one by one?
1. Nc1[nH]c(=S)c2c(N)n[nH]c2c1C(=O)Nc1ccccc1
2. O=C1CCCC1C(O)(C(F)(F)F)C(F)(F)F (configuration not stated)
3. CCCCCCCCCCCCOC1C(C(COC2OC(C3COC(C)(C)O3)C3OC(C)(C)OC23)NC(=O)NS(=O)(=O)c2ccccc2)OC2OC(C)(C)OC21 (configuration not stated)

1. > 100 µM
2. > 100 µM
3. 19.7 µM

---

system: OVCAR-8 ovarian; assay: NCI tumour cell line growth inhibition, 48 h
I'd appreciate it if you could supply TGI values for the items below.
Answers are plain numbers, in µM.

Can you give me TGI for all of these, one by one?
1. CN(C)CC1C(=O)O[C@H]2[C@H]1CC/C(COC(=O)c1cc3ccccc3[nH]1)=C\CC[C@@]1(C)O[C@@H]21 (some centres not stated)
2. C[n+]1c2ccccc2c(NC(CS)C(=O)O)c2ccccc21 (configuration not stated)

[7.48, 61.2]

Can you give me TGI for all of these, one by one?
1. COc1cccc2c1C(=O)c1c(O)c3c(c(O)c1C2=O)C[C@@](O)(C(=O)CO)C[C@@H]3O[C@H]1C[C@H](N)[C@@H](O)[C@H](C)O1
2. Cc1ccc(NC(=O)C(=O)CC(=O)c2c(C)n([O-])c3ccccc3[n+]2=O)cc1
3. O=C(c1ccccc1)C(Br)C(Br)c1cccc([N+](=O)[O-])c1 (configuration not stated)

1. 19.5
2. 55.8
3. 12.7

Can you give me TGI for all of these, one by one?
1. CCN(CC)CCn1c2ccccc2c(=O)c2c(O)ccc(O)c21
2. Cc1c(F)c(N)c2c(=O)cc(-c3ccc(N)c(F)c3)oc2c1F
3. O=c1nc(NC(c2ccccc2)(c2ccccc2)c2ccccc2)ccn1CCNCCn1ccc(NC(c2ccccc2)(c2ccccc2)c2ccccc2)nc1=O
4. C=C1C(=O)OC2C=C(CCC(C)=O)C(C)C(OC(C)=O)CC12 (configuration not stated)

1: 48.2; 2: 58.7; 3: 38.7; 4: 36
